biological target: Calcitonin gene-related peptide type 1 receptor (Homo sapiens, UniProt O60894+Q16602); experiment: Displacement of [125I]human CGRP from human CLR expressed in HEK 293 cells coexpressing human RAMP1 after 3 hrs by scintillation counting
Sequence (Q16602 whole entry, one chain of several): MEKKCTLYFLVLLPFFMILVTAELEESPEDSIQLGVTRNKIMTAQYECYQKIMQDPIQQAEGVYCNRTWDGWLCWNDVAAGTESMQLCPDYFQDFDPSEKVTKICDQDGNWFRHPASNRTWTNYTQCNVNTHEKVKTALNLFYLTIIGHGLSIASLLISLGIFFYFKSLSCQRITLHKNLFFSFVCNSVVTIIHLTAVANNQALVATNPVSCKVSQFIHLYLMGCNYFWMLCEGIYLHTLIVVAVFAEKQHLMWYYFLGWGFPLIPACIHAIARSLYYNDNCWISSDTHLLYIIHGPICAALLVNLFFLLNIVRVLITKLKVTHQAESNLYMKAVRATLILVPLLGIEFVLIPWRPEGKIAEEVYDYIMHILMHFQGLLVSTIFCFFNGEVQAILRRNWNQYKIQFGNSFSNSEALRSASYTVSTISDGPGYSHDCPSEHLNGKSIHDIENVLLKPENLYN
metric: Ki (nM)

                                   compound                             target_system  quantitative_readout
0  O=C(N[C@@H]1CC[C@@H](c2cccc(F)c2F)CN(CC(F)(F)F)C1=O)N1CCC(c2ccc[nH]c2=O)CC1  Calcitonin gene-related peptide type 1 receptor (Homo sapiens, UniProt O60894+Q16602)                   100

I. O=C(N[C@@H]1CC[C@@H](c2cccc(F)c2F)CN(CC(F)(F)F)C1=O)N1CCC2(CC1)C(=O)Nc1ncccc12
II. O=C1NC(=O)C2(CCN(C(=O)N[C@@H]3CC[C@@H](c4cccc(F)c4F)CN(CC(F)(F)F)C3=O)CC2)N1
Which record would sort first by descending Ki, I or II ? Write down the label of the entry you select. II
(II: 46 nM, I: 1.7 nM)

###

target: Calcitonin gene-related peptide type 1 receptor (Homo sapiens, UniProt O60894+Q16602); experiment: Displacement of [125I]human CGRP from human CLR expressed in HEK 293 cells coexpressing human RAMP1 after 3 hrs by scintillation counting
metric: Ki (nM)

I. O=C1CC2(CCN(C(=O)N[C@@H]3CC[C@@H](c4cccc(F)c4F)CN(CC(F)(F)F)C3=O)CC2)C(=O)N1
II. O=C(N[C@@H]1CC[C@@H](c2cccc(F)c2F)CN(CC(F)(F)F)C1=O)N1CCC2(CC1)CC(c1ccccc1)NC2=O (some centres undefined)
III. Cc1cc(C2CCN(C(=O)N[C@@H]3CC[C@@H](c4cccc(F)c4F)CN(CC(F)(F)F)C3=O)CC2)c(=O)[nH]n1
IV. O=C(N[C@@H]1CC[C@@H](c2cccc(F)c2F)CN(CC(F)(F)F)C1=O)N1CCC(O)CC1
Put the above entries in order of falling Ki. List the labels, following the order given in the request. IV, II, I, III
(IV: 5000 nM, II: 380 nM, I: 41 nM, III: 6.6 nM)
